tested on: COLO 201; test: Cytotoxicity against human COLO201 cells assessed as inhibition of cell growth incubated for 24 hrs by WST-1 assay; type: functional, cell-based; settings: COLO 201, 24 h
Entries and their measured IC50 follow.
Express your answer in µM, writing the number without its unit.

{"columns": ["substance_smiles", "units_of_measure", "IC50"],
 "data": [
  ["O=C1C[C@@H](N[C@@H]2CC(=O)c3cccc4c3[C@@]23Oc2ccc(O)c5c2[C@](O4)(O3)[C@@H]2O[C@@H]2C5=O)[C@]23Oc4ccc(O)c5c4[C@](Oc4cccc1c42)(O3)[C@@H]1O[C@@H]1C5=O", "µM", 5.7],
  ["COc1cc(=O)oc2c1[C@H](CO)[C@@H]1[C@H](C2)C(=O)c2cccc3c2[C@@]12Oc1ccc(O)c4c1[C@](O3)(O2)[C@@H]1O[C@@H]1C4=O", "µM", 5.4],
  ["O=C1C=CC(=O)C2=C1[C@@H](O)[C@H]1O[C@H]1C21Oc2cccc3cccc(c23)O1", "µM", 9.4]
]}

State, in one line, measured IC50 of Oc1ccc(O)c2c1[C@@H](O)C[C@@H](O)C21Oc2cccc3cccc(c23)O1
9.8

State, in one line, measured IC50 of CC[C@@]1(O)C(=O)OCc2c1cc1n(c2=O)Cc2cc3ccccc3nc2-1
27
